Field: SERT Ki/NET Ki. Provide a value for each of the compounds that follow.
molecular target: hSERT (Homo sapiens, UniProt P31645); construct: expressed in transfected cells; host or cells: HEK-293 derived cell line, stably transfected; membrane preparation; assay: hSERT binding assay (Assay 1); details: ratio of binding Ki at SERT to Ki at NET; the tables list only compounds with a ratio in the range 0.1-100
Sequence (P31645 whole entry): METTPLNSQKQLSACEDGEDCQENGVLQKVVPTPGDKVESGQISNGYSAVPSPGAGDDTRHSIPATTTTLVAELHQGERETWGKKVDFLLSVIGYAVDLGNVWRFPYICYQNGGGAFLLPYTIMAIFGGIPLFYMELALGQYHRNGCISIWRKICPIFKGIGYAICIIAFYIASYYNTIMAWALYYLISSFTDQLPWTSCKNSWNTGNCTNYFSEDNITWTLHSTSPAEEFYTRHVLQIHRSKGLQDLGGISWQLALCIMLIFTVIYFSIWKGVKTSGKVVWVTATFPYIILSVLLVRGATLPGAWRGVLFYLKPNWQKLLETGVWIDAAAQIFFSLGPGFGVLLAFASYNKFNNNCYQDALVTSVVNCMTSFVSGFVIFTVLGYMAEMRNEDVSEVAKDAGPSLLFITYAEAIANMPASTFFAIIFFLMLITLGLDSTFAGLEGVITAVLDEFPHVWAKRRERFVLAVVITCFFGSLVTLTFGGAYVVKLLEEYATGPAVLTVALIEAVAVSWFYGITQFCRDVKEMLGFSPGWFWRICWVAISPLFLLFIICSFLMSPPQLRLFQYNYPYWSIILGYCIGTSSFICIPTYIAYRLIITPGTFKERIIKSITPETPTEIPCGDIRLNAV
Give the figure by itself; no unit, no explanation.

Request: Bench note: what SERT Ki/NET Ki did Clc1cc(Cl)c(Cl)c(OC(c2ccccc2)C2CCNC2)c1Cl (stereo not drawn) [Ex. 10-2] show?
Response: 0.1

Request: And Fc1c(F)c(F)c(O[C@H](c2ccccc2)[C@@H]2CCNC2)c(F)c1F [49-2] ?
Response: 0.2

Request: And Fc1cc(Cl)cc(F)c1OC(c1ccccc1)C1CCNC1 (stereo not drawn) [44-8] ?
Response: 0.1

Request: And Fc1cc(F)cc([C@@H](Oc2c(Cl)c(F)cc(F)c2Cl)[C@@H]2CCNC2)c1 [48-3] ?
Response: 2

Request: And CC(=O)c1cc(F)cc(F)c1O[C@@H](c1ccccc1)[C@H]1CCNC1 [44-6] ?
Response: 13

Request: And COC(=O)c1cc(F)cc(F)c1O[C@@H](c1ccccc1)[C@H]1CCNC1 [44-28] ?
Response: 2.5
